system: Yap1 mRNA; assay: Dose-dependent inhibition of human Yap1 in A-431 cells (Example 7, 10,000 cells per well, RTS36584); assay type: cell-based; details: Table 56, 62.5 nM, free uptake, A-431 cells 10,000 cells per well, 48 hours
Strand notation (5' to 3'): a small letter for the sugar, then the base; units joined by * are phosphorothioate-linked, units joined directly phosphodiester-linked; [ ] holds rarer units or linkages, { } end groups; capitals alone tell only the bases. k = constrained ethyl (cEt); [5mC] = 5-methylcytosine; d = 2'-deoxy (DNA)
Mark label 1 for reported Yap1 mRNA, % UTC of 60 % UTC or greater; mark label 0 for anything smaller.

Observe how each entry below is paired with its result.
958536 (kA*kG*kG*dG*dT*d[5mC]*dA*dA*dT*dT*dT*dT*d[5mC]*kA*kG*k[5mC]; antisense) [compound 958536]	label 1
958375 (antisense kA*kA*kA*dG*d[5mC]*d[5mC]*dT*dT*dA*dG*dA*dG*dT*k[5mC]*kA*kA) [compound 958375]	label 0
958373 (antisense kA*kG*kG*dT*dG*d[5mC]*dT*dA*dG*d[5mC]*dT*dG*dG*kT*kG*k[5mC]) [compound 958373]	label 0
715491 (kA*kA*k[5mC]*d[5mC]*dA*dA*d[5mC]*dT*dA*dT*dT*dA*d[5mC]*kT*kT*k[5mC]) [compound 715491]	label 1
958476 (kT*kT*k[5mC]*d[5mC]*dG*dG*dT*dG*d[5mC]*dA*dT*dG*dT*kG*kT*k[5mC]; antisense) [compound 958476]	label 0

Hi, just wondering whether 958356 (antisense kT*kT*kG*dA*dA*dG*dA*dA*dG*dG*dA*dG*dT*k[5mC]*kG*kG) [compound 958356] shows Yap1 mRNA, % UTC of 60 % UTC or higher.
label 1

Repeat with 958403 (antisense k[5mC]*kA*kG*dT*dT*dT*dA*dT*dG*dT*dA*dG*dT*kA*kG*kT) [compound 958403]
label 1

----------
test system: Yap1 mRNA; assay: Antisense inhibition of human Yap1 in SNU-449 cells by modified oligonucleotides, single dose (Example 5, RTS36584); assay type: cell-based; details: Table 39; SNU-449 cells, 10,000 cells per well, free uptake, 2,000 nM oligonucleotide, approx. 48 hours; RTS36584; normalized to RIBOGREEN; Yap1 mRNA relative to untreated control
Strand notation (5' to 3'): a small letter for the sugar, then the base; units joined by * are phosphorothioate-linked, units joined directly phosphodiester-linked; [ ] holds rarer units or linkages, { } end groups; capitals alone tell only the bases. e = 2'-O-(2-methoxyethyl) (MOE); k = constrained ethyl (cEt); [5mC] = 5-methylcytosine; d = 2'-deoxy (DNA)
Output schema: class label derived from YAP1 (% UTC). Mapping: b0: < 20 % UTC; b1: ≥ 20 % UTC and < 40 % UTC; b2: ≥ 40 % UTC

In plain terms, what class is 1198409 (kA*dG*dT*dG*d[5mC]*dT*dT*dT*dG*dG*dA*kA*eG*kA*eT*k[5mC]; antisense) [Compound 1198409] ?
b0

----------
For each record, write down the corresponding BUN.
assay: Tolerability in CD-1 mice, plasma chemistry markers (Example 18); format: in vivo; details: male CD-1 mice, 50 mg/kg s.c. twice a week (total of 9 treatments), day 34
Strand notation (5' to 3'): a small letter for the sugar, then the base; units joined by * are phosphorothioate-linked, units joined directly phosphodiester-linked; [ ] holds rarer units or linkages, { } end groups; capitals alone tell only the bases. k = constrained ethyl (cEt); [5mC] = 5-methylcytosine; d = 2'-deoxy (DNA)
Field note: include the unit after the figure.

958499 (ATTAGAGTATGTGGCA; 3-10-3 cEt gapmer, further chemistry not given here) [compound 958499]	24 mg/dL
1076481 (k[5mC]*kT*kA*dA*dG*dT*dA*dA*dG*dG*dT*dT*dT*k[5mC]*k[5mC]*k[5mC]) [compound 1076481]	23 mg/dL
1074755 (k[5mC]*kA*k[5mC]*dT*dT*dT*dT*dA*d[5mC]*dA*dT*dT*dA*kG*kG*kA; antisense) [compound 1074755]	22 mg/dL

// lookup BUN for 1076453 (GTAATATTGCAATCTG; 3-10-3 cEt gapmer, further chemistry not given here) [compound 1076453]
20 mg/dL

----------
system: Yap1 mRNA; test: Antisense inhibition of human Yap1 in A-431 cells by cEt gapmers, single dose (Example 4, RTS4814); format: cell-based; settings: Yap1 mRNA remaining as percent of untreated control; 3-10-3 cEt gapmers; A-431 cells; Table 37
Strand notation (5' to 3'): a small letter for the sugar, then the base; units joined by * are phosphorothioate-linked, units joined directly phosphodiester-linked; [ ] holds rarer units or linkages, { } end groups; capitals alone tell only the bases. k = constrained ethyl (cEt); [5mC] = 5-methylcytosine; d = 2'-deoxy (DNA)
experimental_endpoint: YAP1 (% UTC)
Answers are plain numbers, in % UTC.

Examples from the recorded data:
1076183 (k[5mC]*kT*kT*d[5mC]*dT*dA*dT*dA*dA*dT*dT*dA*dG*k[5mC]*k[5mC]*kA; antisense) [compound 1076183]	7
1075735 (kG*kA*kA*dT*d[5mC]*dG*dA*dT*dG*dT*dG*dT*dT*kG*k[5mC]*kG; antisense) [compound 1075735]	17
1076375 (antisense kT*kA*kT*dA*dA*d[5mC]*dG*dG*dA*dT*dA*dT*dA*k[5mC]*kA*kA) [compound 1076375]	22
1074551 (DNA kA*kA*kT*dA*dT*d[5mC]*dT*dA*d[5mC]*d[5mC]*dG*dT*dA*kT*kG*k[5mC]; antisense) [compound 1074551]	58
1075767 (kT*kA*kT*dT*dA*d[5mC]*dA*d[5mC]*dA*dG*dG*d[5mC]*dA*kG*kG*k[5mC]; antisense) [compound 1075767]	12

Alright, here's another substance for you.
// lookup YAP1 (% UTC) for 1076535 (kA*kT*kT*dT*dT*dT*dA*dG*d[5mC]*dT*d[5mC]*dG*d[5mC]*kA*kA*kT; antisense) [compound 1076535]
28

----------
test system: Yap1 mRNA; experiment: Antisense inhibition of human Yap1 in SNU-449 cells by modified oligonucleotides, single dose (Example 5, RTS36584); format: cell-based; conditions: Table 43 experiment; SNU-449 cells, 10,000 cells per well, free uptake, 2,000 nM, approximately 48 hours; RTS36584; Yap1 mRNA normalized to RIBOGREEN, relative to untreated control cells
Strand notation (5' to 3'): a small letter for the sugar, then the base; units joined by * are phosphorothioate-linked, units joined directly phosphodiester-linked; [ ] holds rarer units or linkages, { } end groups; capitals alone tell only the bases. e = 2'-O-(2-methoxyethyl) (MOE); k = constrained ethyl (cEt); [5mC] = 5-methylcytosine; d = 2'-deoxy (DNA)
For each record, write down the corresponding YAP1 (% UTC).
Answers are plain numbers, in % UTC.

Examples from the recorded data:
1198255 (k[5mC]*kA*dA*d[5mC]*dT*d[5mC]*dT*dT*dA*dT*dA*eT*eG*eG*kT*kT; antisense) [Compound 1198255]	84
1198246 (kT*k[5mC]*dA*dG*dA*dT*dT*dT*dA*dG*dG*eA*eT*eG*k[5mC]*kA; antisense) [Compound 1198246]	30
1198264 (kT*kA*dT*dG*dT*dA*dA*dT*dA*dT*dT*eG*e[5mC]*eA*kA*kT; antisense) [Compound 1198264]	73
1198220 (kA*kA*d[5mC]*dA*d[5mC]*dT*dG*dA*dG*dG*dT*eA*eT*eA*kA*k[5mC]; antisense) [Compound 1198220]	89
1198271 (kT*kT*dA*dA*dA*dG*dT*dG*dT*dA*dT*eG*eT*e[5mC]*kA*kG) [Compound 1198271]	44
1198479 (antisense kT*kT*dA*d[5mC]*dA*dT*dT*dA*dG*dG*dA*eA*k[5mC]*eA*kA*eG) [Compound 1198479]	65
1198481 (antisense k[5mC]*kT*dT*dT*dT*dA*d[5mC]*dA*dT*dT*dA*eG*kG*eA*kA*e[5mC]) [Compound 1198481]	72
1198275 (kT*kA*dA*dG*dG*dT*dT*dT*d[5mC]*d[5mC]*d[5mC]*eA*eG*eA*kT*kT; antisense) [Compound 1198275]	52
1198265 (kT*kT*dT*dA*dT*dG*dT*dA*dA*dT*dA*eT*eT*eG*k[5mC]*kA; antisense) [Compound 1198265]	111
1198282 (kA*kG*dA*d[5mC]*dT*dA*dA*dG*dT*dA*dA*eG*eG*eT*kT*kT; antisense) [Compound 1198282]	58

Consider the following items and state reported YAP1 (% UTC) for each.
1. 1198468 (antisense kT*kT*dA*dG*dA*dG*dT*dA*dT*dG*dT*eG*kG*e[5mC]*kA*eA) [Compound 1198468]
2. 1198272 (kT*kT*dT*dA*dA*dA*dG*dT*dG*dT*dA*eT*eG*eT*k[5mC]*kA; antisense) [Compound 1198272]
3. 1198459 (antisense kA*kA*dA*dT*dT*dG*dT*d[5mC]*dT*d[5mC]*dA*eT*kG*e[5mC]*k[5mC]*eT) [Compound 1198459]

22
37
28
